- Test system: 653999-131-R-J2-PDC complex spheroids, growth % test/control
- Procedure Text: Anticancer human tumor 653999-131-R-J2-PDC patient-derived lung adenocarcinoma cell line growth inhibition [AhR]
- Experimental Parameters: curve of first compound; second compound 0.1 µM
Reported Metric: IC50 (nM)

Compound | IC50, nM
O=C(C=Cc1cccc(S(=O)(=O)Nc2ccccc2)c1)NO + CC(CO)NC(=O)c1cc(-c2ccc(Cl)cc2)nn(-c2cnn(C)c2)c1=O | 3730

I. COc1cc(C2c3cc4c(cc3C(OC3OC5COC(C)OC5C(O)C3O)C3COC(=O)C23)OCO4)cc(OC)c1O (stereo unspecified) + Cc1ccccc1N=Nc1ccc(NC(=O)c2ccnn2C)c(C)c1
II. O=C(C=Cc1cccc(S(=O)(=O)Nc2ccccc2)c1)NO + Cc1cncc(-c2nc(NCCc3c[nH]c4ccccc34)c3ncn(C(C)C)c3n2)c1
### Prompt Name the one with the greater IC50 value, either I or II as given. Returns: label corresponding to the selected item.
### Response II
(II: 2990 nM, I: 846 nM)

###

- System: 653999-131-R-J2-PDC complex spheroids, growth % test/control
- Procedure Text: Anticancer human tumor 653999-131-R-J2-PDC cell line growth inhibition [AhR];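 also: spheroids exposed to agents for seven days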;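 as to viability, T/C: 100% = DMSO vehicle control viability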
- Experimental Parameters: second compound 3.16 µM; first compound 0.003 µM; stronger effect = lower value
Reported Metric: viability, T/C (%)
Reply numerically in %, unit not repeated.

Use these answered entries as a reference point.
Molecule | Readout Unit | Experimental Value
CCc1c2c(nc3ccc(O)cc13)-c1cc3c(c(=O)n1C2)COC(=O)[C@]3(O)CC + Cc1ccccc1N=Nc1ccc(NC(=O)c2ccnn2C)c(C)c1 | % | 65
CC(C)CC(NC(=O)C(Cc1ccccc1)NC(=O)c1cnccn1)B(O)O (centres undefined) + CC(CO)NC(=O)c1cc(-c2ccc(Cl)cc2)nn(-c2cnn(C)c2)c1=O | % | 120
CCc1c2c(nc3ccc(O)cc13)-c1cc3c(c(=O)n1C2)COC(=O)[C@]3(O)CC + CC(CO)NC(=O)c1cc(-c2ccc(Cl)cc2)nn(-c2cnn(C)c2)c1=O | % | 50.8
CC(C)CC(NC(=O)C(Cc1ccccc1)NC(=O)c1cnccn1)B(O)O (centres undefined) + Cc1ccccc1N=Nc1ccc(NC(=O)c2ccnn2C)c(C)c1 | % | 96.8
Nc1ncn(C2CC(O)C(CO)S2)c(=O)n1 (centres undefined) + Cc1ccccc1N=Nc1ccc(NC(=O)c2ccnn2C)c(C)c1 | % | 100

// next item, viability, T/C requested
Short answer for CC(C)CC(NC(=O)C(Cc1ccccc1)NC(=O)c1cnccn1)B(O)O (centres undefined) + Cc1cncc(-c2nc(NCCc3c[nH]c4ccccc34)c3ncn(C(C)C)c3n2)c1 : viability, T/C was 121

###

- Tested on: 653999-131-R-J2-PDC complex spheroids, growth % test/control
- Procedure Text: Anticancer human tumor 653999-131-R-J2-PDC cell line growth inhibition [AhR];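 also: spheroids exposed to agents for seven days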;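 as to viability, T/C: 100% = DMSO vehicle control viability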
- Experimental Parameters: second compound 10 µM; first compound 0.01 µM; stronger effect = lower value
Reported Metric: viability, T/C (%)
Respond numerically; units are % and should not be typed.

Compound | Readout Unit | viability, T/C
CC[C@@]1(O)C(=O)OCc2c1cc1n(c2=O)Cc2cc3c(CN(C)C)c(O)ccc3nc2-1 + CC(CO)NC(=O)c1cc(-c2ccc(Cl)cc2)nn(-c2cnn(C)c2)c1=O | % | 65.9
Cn1ncnc1C1c2n[nH]c(=O)c3cc(F)cc(c23)NC1c1ccc(F)cc1 (stereo not drawn) + Cc1cncc(-c2nc(NCCc3c[nH]c4ccccc34)c3ncn(C(C)C)c3n2)c1 | % | 56

// switching to the query compound
Looking up CC[C@@]1(O)C(=O)OCc2c1cc1n(c2=O)Cc2cc3c(CN(C)C)c(O)ccc3nc2-1 + Cc1ccccc1N=Nc1ccc(NC(=O)c2ccnn2C)c(C)c1 , I found its viability, T/C recorded as 82.3
